Attribution: patent US20200317660A1

Entries below carry reported pIC50 on PI3Kβ (Homo sapiens, UniProt P42338).
Sequence (P42338 whole entry, one chain of several): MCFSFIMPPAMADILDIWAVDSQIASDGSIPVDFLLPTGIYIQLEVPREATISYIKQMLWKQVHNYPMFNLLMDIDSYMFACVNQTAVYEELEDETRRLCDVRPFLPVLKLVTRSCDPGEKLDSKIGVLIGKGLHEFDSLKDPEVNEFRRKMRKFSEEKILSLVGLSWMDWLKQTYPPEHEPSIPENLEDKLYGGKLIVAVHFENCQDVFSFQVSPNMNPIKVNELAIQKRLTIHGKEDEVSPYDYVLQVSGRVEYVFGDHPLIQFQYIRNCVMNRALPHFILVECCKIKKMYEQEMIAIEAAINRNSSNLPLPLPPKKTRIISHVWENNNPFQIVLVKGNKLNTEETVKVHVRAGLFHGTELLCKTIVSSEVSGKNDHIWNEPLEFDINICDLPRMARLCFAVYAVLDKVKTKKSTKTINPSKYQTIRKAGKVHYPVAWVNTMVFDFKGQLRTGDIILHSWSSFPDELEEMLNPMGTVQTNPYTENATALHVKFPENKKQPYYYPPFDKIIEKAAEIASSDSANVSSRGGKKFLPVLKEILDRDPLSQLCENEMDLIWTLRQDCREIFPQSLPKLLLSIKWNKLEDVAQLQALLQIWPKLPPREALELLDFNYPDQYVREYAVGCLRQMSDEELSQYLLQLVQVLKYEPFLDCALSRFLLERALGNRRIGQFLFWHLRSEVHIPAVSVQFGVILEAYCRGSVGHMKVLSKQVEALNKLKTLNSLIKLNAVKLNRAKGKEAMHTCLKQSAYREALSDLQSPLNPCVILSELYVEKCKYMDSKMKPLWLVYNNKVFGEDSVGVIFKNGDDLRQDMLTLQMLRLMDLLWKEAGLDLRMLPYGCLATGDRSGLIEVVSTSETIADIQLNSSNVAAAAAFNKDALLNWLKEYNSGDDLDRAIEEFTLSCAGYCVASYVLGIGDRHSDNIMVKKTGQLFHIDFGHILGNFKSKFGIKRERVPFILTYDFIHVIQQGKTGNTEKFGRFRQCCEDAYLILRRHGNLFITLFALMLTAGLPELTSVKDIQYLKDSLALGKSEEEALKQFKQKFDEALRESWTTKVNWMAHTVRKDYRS
Numbers only, as −log10 of the molar value.

Examples from the recorded data:
molecule: CCC(CC)NC(=O)C(C)Cn1cnc2ccc(-c3cnc(OC)c(NS(=O)(=O)c4ccc(F)cc4Cl)c3)cc2c1=O (single isomer, unassigned)
pIC50: 5.29
--
molecule: COc1ncc(-c2ccc3ncn(CC(C)C(=O)NCC(F)(F)F)c(=O)c3c2)cc1NS(=O)(=O)c1ccc(F)cc1Cl (single isomer, unassigned)
pIC50: 6.41

Continue with the next molecule.
Qu. Recorded pIC50 of COc1ncc(-c2ccc3ncn(CC(C(N)=O)C(C)C)c(=O)c3c2)cc1NS(=O)(=O)c1ccc(F)cc1Cl (stereo not drawn) , please.
Ans. 6.08

====

target: PI3Kγ (Homo sapiens)
property_measured: IC50 (µM)
Numbers only, in µM.

compound: Cc1nc(C)c(S(=O)(=O)Nc2cc(-c3ccc4ncn(CCCC(=O)NC(C)C)c(=O)c4c3)cnc2C)s1
unit_info: µM
number: 0.0196
//
compound: CNC(=O)C(C)Cn1cnc2ccc(-c3cnc(OC)c(NS(=O)(=O)c4cc(Cl)c(F)cc4F)c3)cc2c1=O (single isomer, unassigned)
unit_info: µM
number: 0.0683
//
compound: CNC(=O)C(C)Cn1cnc2ccc(-c3cnc(OC)c(NS(=O)(=O)c4ccc(F)cc4)c3)cc2c1=O (single isomer, unassigned)
unit_info: µM
number: 0.0413

Continue with the next compound.
Qu. Recorded IC50 of CNC(=O)C(C)Cn1cnc2ccc(-c3cnc(OC)c(NS(=O)(=O)c4cc(Cl)ccc4Cl)c3)cc2c1=O (single isomer, unassigned) , please.
Ans. 0.00821

====

target: PI3Kγ (Homo sapiens)
Exercise: state measured log10 of IC50 for each of the compounds provided.
Values below are the log10 of the recorded IC50, with nM as the unit.

Examples from the recorded data:
compound: COc1ncc(-c2ccc3ncn(CC(C)C(=O)NCC(F)(F)F)c(=O)c3c2)cc1NS(=O)(=O)c1ccc(F)cc1Cl (single isomer, unassigned) [WX058]
test_target: PI3Kγ (Homo sapiens)
log10 of IC50: 1.73

compound: COc1ncc(-c2ccc3ncn(CC(C)C(=O)NCC(F)(F)F)c(=O)c3c2)cc1NS(=O)(=O)c1ccc(F)cc1Cl (single isomer, unassigned) [WX059]
test_target: PI3Kγ (Homo sapiens)
log10 of IC50: 1.15

compound: CNC(=O)C(C)Cn1cnc2ccc(-c3cnc(CO)c(NS(=O)(=O)c4ccc(F)cc4Cl)c3)cc2c1=O (single isomer, unassigned)
test_target: PI3Kγ (Homo sapiens)
log10 of IC50: 2.57

compound: COc1ncc(-c2ccc3ncn(CC(N)C(N)=O)c(=O)c3c2)cc1NS(=O)(=O)c1ccc(F)cc1Cl (stereo not drawn)
test_target: PI3Kγ (Homo sapiens)
log10 of IC50: 1.60

Please give log10 of IC50, item by item, for the list that follows.
1. Cc1nc(C)c(S(=O)(=O)Nc2cc(-c3ccc4ncn(CCCC(=O)N5CCCC5)c(=O)c4c3)cnc2C)s1
2. COc1ncc(-c2ccc3ncn(CC4(C(N)=O)CC4)c(=O)c3c2)cc1NS(=O)(=O)c1ccc(F)cc1Cl

Ans.
1: 1.46; 2: 1.31

====

Entries below carry reported pIC50 on PI3Kβ (Homo sapiens, UniProt P42338).
Give bare numbers, as −log10 of the molar value.

molecule: CNC(=O)C(C)Cn1cnc2ccc(-c3cnc(OC)c(NS(=O)(=O)c4cc(Cl)ccc4C)c3)cc2c1=O (single isomer, unassigned) [WX222]
pIC50: 6.44

molecule: CNC(=O)[C@@H](C)Cn1cnc2ccc(-c3cnc(OC)c(NS(=O)(=O)c4ccc(F)cc4C(F)(F)F)c3)cc2c1=O
pIC50: 6.36

Qu. Recorded pIC50 of CNC(=O)C(C)Cn1cnc2ccc(-c3cnc(CO)c(NS(=O)(=O)c4ccc(F)cc4Cl)c3)cc2c1=O (single isomer, unassigned) [WX063] , please.
Ans. 5.14

====

target: PI3Kγ (Homo sapiens, UniProt P48736)
Sequence (P48736 whole entry): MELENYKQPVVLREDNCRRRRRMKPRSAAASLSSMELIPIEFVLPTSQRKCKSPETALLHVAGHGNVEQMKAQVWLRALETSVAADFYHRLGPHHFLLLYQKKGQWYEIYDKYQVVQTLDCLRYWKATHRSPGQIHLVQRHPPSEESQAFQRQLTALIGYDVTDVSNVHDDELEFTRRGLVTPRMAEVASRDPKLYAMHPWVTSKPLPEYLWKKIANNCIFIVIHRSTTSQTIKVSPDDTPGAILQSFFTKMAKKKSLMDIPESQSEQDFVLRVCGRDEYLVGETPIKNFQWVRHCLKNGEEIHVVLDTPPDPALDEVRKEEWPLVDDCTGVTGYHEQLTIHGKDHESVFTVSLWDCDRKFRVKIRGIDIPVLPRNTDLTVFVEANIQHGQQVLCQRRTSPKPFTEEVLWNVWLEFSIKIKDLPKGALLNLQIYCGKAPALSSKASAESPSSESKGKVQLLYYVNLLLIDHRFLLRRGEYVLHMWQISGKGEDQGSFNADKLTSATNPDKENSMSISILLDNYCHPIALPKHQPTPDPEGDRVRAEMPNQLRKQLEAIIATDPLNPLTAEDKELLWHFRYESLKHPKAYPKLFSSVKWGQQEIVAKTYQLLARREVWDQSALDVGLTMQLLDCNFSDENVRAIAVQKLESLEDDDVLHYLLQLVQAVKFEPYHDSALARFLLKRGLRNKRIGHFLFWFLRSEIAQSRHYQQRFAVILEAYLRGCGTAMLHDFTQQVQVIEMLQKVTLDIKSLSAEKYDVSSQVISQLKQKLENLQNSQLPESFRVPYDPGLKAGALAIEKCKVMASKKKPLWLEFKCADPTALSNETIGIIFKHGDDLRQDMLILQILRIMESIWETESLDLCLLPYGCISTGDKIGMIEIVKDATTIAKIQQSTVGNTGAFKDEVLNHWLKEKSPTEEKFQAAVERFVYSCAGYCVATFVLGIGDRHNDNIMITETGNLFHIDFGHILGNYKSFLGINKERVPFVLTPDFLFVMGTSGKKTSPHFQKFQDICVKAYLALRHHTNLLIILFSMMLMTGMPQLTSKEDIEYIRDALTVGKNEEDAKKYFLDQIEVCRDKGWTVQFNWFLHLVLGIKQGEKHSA
property_measured: IC50 (nM)
One number for each entry, in nM.

compound: CNC(=O)C1(Cn2cnc3ccc(-c4cnc(OC)c(NS(=O)(=O)c5ccc(F)cc5Cl)c4)cc3c2=O)CC1
number: 44.1
--
compound: CNC(=O)C(C)Cn1cnc2ccc(-c3cnc(OC)c(NS(=O)(=O)c4ccc(C)cc4C)c3)cc2c1=O (single isomer, unassigned)
number: 97.3

Continue with the next compound.
Qu. Recorded IC50 of CNC(=O)C(C)Cn1cnc2ccc(-c3cnc(OC)c(NS(=O)(=O)c4cc(C)ccc4Cl)c3)cc2c1=O (single isomer, unassigned) , please.
Ans. 31.4

====

Exercise: state measured IC50 for each of the compounds provided.
biological target: PI3Kδ (Homo sapiens, UniProt O00329); experiment: In vitro test of enzyme activity (ADP-Glo lipokinase), PI3K delta; details: 40 μM ATP, 50 μM PIP2:3PS, 120 min
Sequence (O00329 whole entry): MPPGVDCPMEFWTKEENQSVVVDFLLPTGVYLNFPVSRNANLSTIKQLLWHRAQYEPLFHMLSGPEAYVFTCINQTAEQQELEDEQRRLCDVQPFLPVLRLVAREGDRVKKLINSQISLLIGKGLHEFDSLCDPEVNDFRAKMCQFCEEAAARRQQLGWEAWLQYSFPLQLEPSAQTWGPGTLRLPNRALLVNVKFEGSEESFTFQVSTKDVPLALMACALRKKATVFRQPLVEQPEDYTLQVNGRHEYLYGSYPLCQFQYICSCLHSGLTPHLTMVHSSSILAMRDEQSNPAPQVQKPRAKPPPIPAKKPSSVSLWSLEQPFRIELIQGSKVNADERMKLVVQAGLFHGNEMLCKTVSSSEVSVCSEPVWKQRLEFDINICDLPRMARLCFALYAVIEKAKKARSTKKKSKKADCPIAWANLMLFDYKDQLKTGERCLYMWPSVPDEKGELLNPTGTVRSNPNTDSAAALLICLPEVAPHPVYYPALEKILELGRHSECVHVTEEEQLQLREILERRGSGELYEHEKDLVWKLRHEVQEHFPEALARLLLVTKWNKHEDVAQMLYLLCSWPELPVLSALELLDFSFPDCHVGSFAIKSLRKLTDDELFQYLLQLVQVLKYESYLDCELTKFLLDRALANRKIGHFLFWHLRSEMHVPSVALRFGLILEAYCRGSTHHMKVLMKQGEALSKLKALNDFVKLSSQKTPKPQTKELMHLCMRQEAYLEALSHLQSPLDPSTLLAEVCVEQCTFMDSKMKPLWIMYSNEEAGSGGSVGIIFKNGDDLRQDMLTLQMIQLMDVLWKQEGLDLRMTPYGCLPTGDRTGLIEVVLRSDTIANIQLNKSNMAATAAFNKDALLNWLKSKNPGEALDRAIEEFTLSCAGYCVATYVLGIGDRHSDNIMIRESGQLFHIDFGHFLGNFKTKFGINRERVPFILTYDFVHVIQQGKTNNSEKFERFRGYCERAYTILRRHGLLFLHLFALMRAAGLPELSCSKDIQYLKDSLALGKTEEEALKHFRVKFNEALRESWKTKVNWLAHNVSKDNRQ
Sequence (P27986 whole entry partner): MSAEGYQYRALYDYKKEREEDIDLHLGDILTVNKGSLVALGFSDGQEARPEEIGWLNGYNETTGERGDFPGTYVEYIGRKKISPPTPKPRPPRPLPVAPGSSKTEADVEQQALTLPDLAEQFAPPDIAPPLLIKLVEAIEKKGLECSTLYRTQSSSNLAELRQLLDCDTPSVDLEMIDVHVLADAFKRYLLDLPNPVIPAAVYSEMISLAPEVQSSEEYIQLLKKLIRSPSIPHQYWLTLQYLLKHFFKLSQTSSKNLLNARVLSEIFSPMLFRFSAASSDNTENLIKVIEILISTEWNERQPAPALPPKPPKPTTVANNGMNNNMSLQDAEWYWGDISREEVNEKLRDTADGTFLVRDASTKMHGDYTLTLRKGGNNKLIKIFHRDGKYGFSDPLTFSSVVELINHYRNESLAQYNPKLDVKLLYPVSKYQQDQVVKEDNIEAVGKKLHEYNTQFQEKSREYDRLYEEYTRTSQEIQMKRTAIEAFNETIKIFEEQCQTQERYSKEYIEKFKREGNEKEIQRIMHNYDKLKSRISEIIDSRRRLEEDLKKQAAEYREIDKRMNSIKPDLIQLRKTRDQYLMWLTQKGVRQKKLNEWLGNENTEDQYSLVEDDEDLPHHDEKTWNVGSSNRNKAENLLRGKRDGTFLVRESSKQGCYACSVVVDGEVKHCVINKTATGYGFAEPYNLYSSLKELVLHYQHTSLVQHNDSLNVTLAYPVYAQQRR
Numbers only, in µM.

compound: COc1ncc(-c2ccc3ncn(CC4(C(N)=O)CC4)c(=O)c3c2)cc1NS(=O)(=O)c1ccc(F)cc1Cl [WX023]
property_measured: IC50
unit_info: µM
number: 0.00202

Please give IC50, item by item, for the list that follows.
1. CNC(=O)C(C)Cn1cnc2ccc(-c3cnc(OC)c(NS(=O)(=O)c4cc(Cl)ccc4C)c3)cc2c1=O (single isomer, unassigned) [WX222]
2. COc1ncc(-c2ccc3ncn(CC(C)C(=O)NCCF)c(=O)c3c2)cc1NS(=O)(=O)c1ccc(F)cc1Cl (single isomer, unassigned) [WX066]
3. Cc1nc(C)c(S(=O)(=O)Nc2cc(-c3ccc4ncn(CCCC(=O)N5CCCC5)c(=O)c4c3)cnc2C)s1 [WX007]
4. CCC(CC)NC(=O)C(C)Cn1cnc2ccc(-c3cnc(OC)c(NS(=O)(=O)c4ccc(F)cc4Cl)c3)cc2c1=O (single isomer, unassigned) [WX057]
5. CNC(=O)[C@@H](C)Cn1cnc2ccc(-c3cnc(OC)c(NS(=O)(=O)c4cc(F)cc(F)c4)c3)cc2c1=O [WX192]
6. CNC(=O)CCCn1cnc2ccc(-c3cnc(C)c(NS(=O)(=O)c4ccc(F)cc4Cl)c3)cc2c1=O [WX002]

Ans.
0.0207
0.00778
0.00185
0.0284
0.0375
0.0124

====

molecular target: PI3Kγ (Homo sapiens)
Note to self: IC50 under 50 nM means TRUE, ties and anything higher get FALSE.

// known answers, use as guide
compound: COCCNC(=O)C(C)Cn1cnc2ccc(-c3cnc(OC)c(NS(=O)(=O)c4ccc(F)cc4Cl)c3)cc2c1=O (single isomer, unassigned)
test_target: PI3Kγ (Homo sapiens)
class_assignment: TRUE

compound: COc1ncc(-c2ccc3ncn(CC(C)C(=O)O)c(=O)c3c2)cc1NS(=O)(=O)c1ccc(F)cc1Cl (single isomer, unassigned) [R002, reference compound]
test_target: PI3Kγ (Homo sapiens)
class_assignment: TRUE

compound: CNC(=O)C(C)Cn1cnc2ccc(-c3cnc(OC)c(NS(=O)(=O)c4ccc(F)cc4C)c3)cc2c1=O (single isomer, unassigned)
test_target: PI3Kγ (Homo sapiens)
class_assignment: TRUE

compound: Cc1ncc(-c2ccc3ncn(CCN(C)C)c(=O)c3c2)cc1NS(=O)(=O)c1ccc(F)cc1Cl [R010, reference compound]
test_target: PI3Kγ (Homo sapiens)
class_assignment: FALSE

Let us examine a further case.
Qu. Consider COc1ncc(-c2ccc3ncn(CC(C)C(N)=O)c(=O)c3c2)cc1NS(=O)(=O)c1sc(C)nc1C (single isomer, unassigned) . Does its IC50 lie strictly below 50 nM?
Ans. TRUE

====

Exercise: state measured Cmax for each of the compounds provided.
Experiment: In vivo DMPK study in mice after a single administration
Design: species or system female Balb/c mice
Settings: oral, 10 mpk
Experimental: Experimental objective: female Balb/c mice were used as the test animals, and the blood concentration of the compound was determined and the pharmacokinetic behavior was evaluated after a single administration. Experimental operation: 12 healthy adult female Balb/c mice were selected, 6 for intravenous injection group and 6 for oral administration group. […]
Answers are plain numbers, in µM.

Examples from the recorded data:
compound: CNC(=O)C(C)Cn1cnc2ccc(-c3cnc(OC)c(NS(=O)(=O)c4cc(C(F)(F)F)cc(C(F)(F)F)c4)c3)cc2c1=O (single isomer, unassigned) [WX103]
Cmax, µM: 18.3

compound: CNC(=O)C(C)Cn1cnc2ccc(-c3cnc(OC)c(NS(=O)(=O)c4ccc(F)cc4C)c3)cc2c1=O (single isomer, unassigned) [WX181]
Cmax, µM: 8.34

compound: CNC(=O)C(C)Cn1cnc2ccc(-c3cnc(OC)c(NS(=O)(=O)c4cc(C)ccc4Cl)c3)cc2c1=O (single isomer, unassigned) [WX214]
Cmax, µM: 8.41

compound: CNC(=O)C(C)Cn1cnc2ccc(-c3cnc(OC)c(NS(=O)(=O)c4cc(Cl)ccc4Cl)c3)cc2c1=O (single isomer, unassigned) [WX183]
Cmax, µM: 25.9

compound: CNC(=O)C(C)Cn1cnc2ccc(-c3cnc(OC)c(NS(=O)(=O)c4ccc(F)cc4)c3)cc2c1=O (single isomer, unassigned) [WX087]
Cmax, µM: 5

Qu. Recorded Cmax of CNC(=O)C(C)Cn1cnc2ccc(-c3cnc(OC)c(NS(=O)(=O)c4cc(Cl)ccc4C)c3)cc2c1=O (single isomer, unassigned) [WX222] , please.
Ans. 6.88
